Catalogue of normalized growth values
- testDescription: chemical genetic growth profiling, strain panel (AID 1159580);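 note: tested at 20 µM; growth read once vehicle control cultures reached saturation at 30 °C; 1 = growth at the plate median or of vehicle wells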
- setupConditions: S. cerevisiae deletion strains, growth OD, locus YER016W, strain bim1, hits give low values
Screen size: about 5,500 compounds; about 2,000 (36%) were called active. About 18% were inconclusive and are not listed. The list shows a part of the results.
Would you mind answering with just the numeric figure?

Worked cases, normalized growth given:
Item under review: COc1cc(-c2oc3cc(O)ccc3c(=O)c2O)ccc1O . Reported normalized growth? 0.986

What does the data say about its normalized growth? Entry: COc1cc2cc3c4cc(OC)c(OC)cc4cc[n+]3c(C)c2cc1OC 1

Name the recorded normalized growth for O=c1c(O)c(-c2ccc(O)c(O)c2)oc2cc(O)ccc12 . 0.989

Any idea what its normalized growth is? The compound is COc1ccc([C@H]2COc3c(ccc(O)c3OC)C2)c(OC)c1O 0.983

Continuing:
Need normalized growth, item CN(C)CCc1c[nH]c2ccc(C[C@H]3COC(=O)N3)cc12 1.01

Name the recorded normalized growth for CCOc1cccc(C(=O)c2ccc(O)c(O)c2O)c1 . 0.953

###

- testDescription: chemical genetic growth profiling, strain panel (AID 1159580)
- setupConditions: S. cerevisiae deletion strains, growth OD, locus YMR205C, strain PFK2, hits give low values
Hit rate of the full screen: of about 5,500 compounds, about 2,000 (36%) were called active. Roughly 18% stayed inconclusive and do not appear here. The list shows a part of the results. Where a SMILES comes first, the peptide text is derived from it. Bridges are numbered along the chain shown (N, C = ends). [ ]: non-standard residue; d: D form. The star is where a group is joined. Octanoyl(6-Me) = CCC(C)CCCCC(=O)*; Dab = NCC[CH](N)C(=O)O
Checkbox rule: normalized growth lower than 1 = condition met; normalized growth not lower than 1 = condition not met.

Consider COc1cc(-c2oc3cc(O)ccc3c(=O)c2O)ccc1O . Does its normalized growth lie strictly below 1? condition met

Determine whether this molecule shows normalized growth lower than 1 (ties excluded): O=C(NC1CCCCC1)NC1CCCCC1 condition met

Quick check: normalized growth of CC1(C)S[C@@H]2[C@H](NC(=O)[C@H](C(=O)O)c3cccs3)C(=O)N2[C@H]1C(=O)O under 1? condition not met

For the next question, use this molecule.
Is normalized growth strictly under 1 for the entry CCC(C)CCCCC(=O)NC(CCN)C(=O)NC(C(=O)NC(CCN)C(=O)NC1CCNC(=O)C(C(C)O)NC(=O)C(CCN)NC(=O)C(CCN)NC(=O)C(CC(C)C)NC(=O)C(Cc2ccccc2)NC(=O)C(CCN)NC1=O)C(C)O (centres undefined) ({Octanoyl(6-Me)}-[Dab]T[Dab][Dab][Dab]FL[Dab][Dab]T; lactam 4-C; configuration not given here) ? condition met

###

Listing of recorded normalized growth by entry.
- testDescription: chemical genetic growth profiling, strain panel (AID 1159580);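 note: tested at 20 µM; growth read once vehicle control cultures reached saturation at 30 °C; 1 = growth at the plate median or of vehicle wells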
- setupConditions: S. cerevisiae deletion strains, growth OD, locus YGR135W, strain pre9, hits give low values
About 2,000 (36%) of roughly 5,500 compounds were called active. About 18% were inconclusive and are not listed. Some of the results follow.
Keep it simple and answer with nothing but the number.

Some solved entries appear below for comparison.
# normalized growth lookup, item COc1cccc(OC)c1C(=O)N[C@@H]1C(=O)N2[C@@H]1SC(C)(C)[C@@H]2C(=O)O 1

Record request: normalized growth value, item O=C(CCc1ccc(O)cc1)c1c(O)cc(O)cc1O[C@@H]1O[C@H](CO)[C@@H](O)[C@H](O)[C@H]1O 1

Which normalized growth value belongs to COc1cc(O)cc(OC)c1OC ? 1.01

So what does the record say about normalized growth for Cc1onc(-c2c(Cl)cccc2Cl)c1C(=O)N[C@@H]1C(=O)N2[C@@H]1SC(C)(C)[C@@H]2C(=O)O ? 0.976

***
# get_value(readout='normalized growth', item= Cc1onc(-c2ccccc2)c1C(=O)NC1C(=O)N2[C@@H]1SC(C)(C)[C@@H]2C(=O)O (stereo partly drawn) ) 1.01

I have this compound here, CC1(C)S[C@@H]2[C@H](NC(=O)Cc3ccccc3)C(=O)N2[C@H]1C(=O)O , and I need its recorded normalized growth. 1.02

For the compound shown here, Cc1onc(-c2ccccc2Cl)c1C(=O)N[C@@H]1C(=O)N2[C@@H]1SC(C)(C)[C@@H]2C(=O)O , give the reported normalized growth. 1.03

Dear colleague, I am looking for the recorded normalized growth of the following compound: COc1cc(-c2coc3cc(O[C@@H]4O[C@H](CO)[C@@H](O)[C@H](O)[C@H]4O)c(OC)c(O)c3c2=O)cc(O)c1OC 0.97

###

- testDescription: chemical genetic growth profiling, strain panel (AID 1159580);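 note: tested at 20 µM; growth read once vehicle control cultures reached saturation at 30 °C; 1 = growth at the plate median or of vehicle wells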
- setupConditions: S. cerevisiae deletion strains, growth OD, locus YGR078C, strain PAC10
Screen size: about 5,500 compounds; about 2,000 (36%) were called active. About 18% were inconclusive and are not listed. Cut-off read from the data, not from the text of the source: active = normalized growth mostly below about 0.91 (no sharp cut-off); inconclusive = no clear call, values can overlap the other calls; inactive = mostly above about 0.92. This is one part of the list.
Allowed answers: active, inactive

Look over these answered cases.
Would you mind telling me which call this test gave Cc1cc(C)cc(N2C(=O)CC(Sc3ccccc3C(=O)O)C2=O)c1 (stereo unspecified) ? inactive

Outcome logged for CC(=O)[C@@]1(O)CCC2C3CCC4=CC(=O)CC[C@]4(C)C3CC[C@@]21C (stereo partly specified) in this assay: inactive

Test call for this molecule, please: COc1cccc(Nc2nc3ccccc3s2)c1 active

Recorded call for COc1cc(NS(=O)(=O)c2ccc(N)cc2)ncn1 ? inactive

Called result for COc1cc(/C=C/C=O)cc(OC)c1OC inactive

Per the records of this test, what outcome belongs to CC(C)C1C2CCC(C2)C1N (stereo unspecified) ? inactive

Others:
How was O=C1CC2(CCCC2)C(=O)N1CCNc1nccc(C(F)(F)F)n1 classified in this test? inactive

Record lookup: outcome of this test for CC(C)(C)c1ccc(-c2cc(N)c(C(N)=O)s2)cc1 ? inactive

Tell me the assay call for CC(C)(C)c1cc(-c2cc(C(F)(F)F)[nH]n2)c2c(c1)C(C)(C)CC2 please. inactive

Recorded call for CSc1nc(N)nc(N2CCCCC2)n1 ? inactive

Test call for this molecule, please: Cn1cc(C(F)(F)F)nc1-c1ccc(OCC(O)CNCCOc2ccc(O)c(C(N)=O)c2)cc1 (stereo unspecified) inactive

Tell me the assay call for CCN(CC)CCNC(=O)c1cc(Cl)c(N)cc1OC please. inactive

Short answer needed: outcome of this test for COc1ccc2c(=O)ccoc2c1 ? inactive

Query: recorded result category for NC(Cc1cc(O)c(O)cc1O)C(=O)O (stereo unspecified) in this test inactive

Answer briefly: the call reported for COc1cc(/C=C2/SC(=S)NC2=O)cc(OC)c1OC in this assay. active

Please state the recorded outcome for this molecule: CC(=O)[C@@]1(O)CC[C@H]2[C@@H]3CCC4=CC(=O)CC[C@]4(C)[C@H]3CC[C@@]21C inactive

###

- testDescription: chemical genetic growth profiling, strain panel (AID 1159580);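 note: tested at 20 µM; growth read once vehicle control cultures reached saturation at 30 °C; 1 = growth at the plate median or of vehicle wells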
- setupConditions: S. cerevisiae deletion strains, growth OD, locus YOR231W, strain MKK1
Out of some 5,500 compounds screened, about 2,000 (36%) were called active. About 18% were inconclusive and are not listed. No stated cut-off is given here; in the data, active means normalized growth mostly below about 0.91 (no sharp cut-off); inconclusive means no clear call, values can overlap the other calls; inactive means mostly above about 0.92. This is one part of the list.
Please state which outcome applies, choosing from active, inactive

Worked cases, answers included:
// outcome(item) with item = COc1ccc(C(=O)O)c(O)c1OC inactive

I'd appreciate the recorded outcome for CCN(CC)C(=O)c1ccc(O)c(OC)c1 from this test. inactive

Any idea what this test logged for CCOC([O-])=Nc1c[n+](N2CCOCC2)no1 ? inactive

***
Per the records of this test, what outcome belongs to COc1cc2c(cc1O)CCNC2C (centres undefined) ? inactive

Per the records of this test, what outcome belongs to O=C(NC1CCCCC1)NC1CCCCC1 ? inactive

Recorded test call requested for O=c1c(-c2ccccc2)c(O)c2cccc3c4ccccc4n1c23 active

Name the outcome recorded for NCCNCCNCCN in the assay. inactive

Dear colleague, could you share the recorded outcome for COc1ccc2c(c1)[C@]13CCCC[C@H]1[C@H](C2)N(C)CC3 when you have a moment? inactive

Assay result, entry C1CCC(C(CC2CCCCN2)C2CCCCC2)CC1 (centres undefined) — outcome? inactive

Tell me the assay call for CC1=CC2C(C(C)C)CCC(C)(O)C2CC1 (centres undefined) please. inactive

GET /call?item= CCOc1ccc(C(=O)c2ccc(OC)c(O)c2O)cc1 returns the recorded outcome of this test. inactive

Recorded test outcome, item O=c1[nH]cnc2c1ncn2C1O[C@H](CO)[C@@H](O)[C@H]1O (some centres undefined) inactive

I would be grateful if you could indicate the recorded call for Cn1nc(-c2ccccc2)c(O)c(N=Nc2ccccc2)c1=O . inactive

Per the records of this test, what outcome belongs to CCOc1ccc(C(=O)c2ccc(O)c(O)c2O)cc1 ? inactive

Could you please tell me the result logged for c1ccc([C@H]2CN3CCSC3=N2)cc1 in this assay? inactive

Hello, I am checking results. What call was entered for CC1=C(O)C(=O)C=C2C1=CC=C1[C@@]2(C)CC[C@@]2(C)[C@@H]3C[C@](C)(C(=O)O)CC[C@]3(C)CC[C@]12C ? active
